Provenance of the data: patent USRE47150

We begin with a simple list: items and their reported Improvement vs parental, FXa restoring assay.
# testedTarget: recombinant TFPI of the FXa restoring assay (human, mouse or rat; not specified for Tables 9 and 10)
# Sequence (P10646 29-304): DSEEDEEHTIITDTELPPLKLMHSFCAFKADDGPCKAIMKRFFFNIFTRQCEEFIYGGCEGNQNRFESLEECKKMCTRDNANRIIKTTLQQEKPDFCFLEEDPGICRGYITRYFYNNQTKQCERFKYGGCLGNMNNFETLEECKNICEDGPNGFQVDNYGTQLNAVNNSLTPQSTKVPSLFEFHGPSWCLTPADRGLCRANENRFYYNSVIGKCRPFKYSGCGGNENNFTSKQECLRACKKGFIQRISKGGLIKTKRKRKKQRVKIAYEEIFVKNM
# procedureDetails: cell-based or functional assay
Your answer is read as fold, so omit the unit and give the number.

Solved cases (2 shown):
2A8 HC_K99L (Fab, V domains shown, also called 2A8-9) VH: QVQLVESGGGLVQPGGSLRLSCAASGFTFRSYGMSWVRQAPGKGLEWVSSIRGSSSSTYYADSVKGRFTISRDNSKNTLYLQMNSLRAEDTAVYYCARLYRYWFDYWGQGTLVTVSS VL: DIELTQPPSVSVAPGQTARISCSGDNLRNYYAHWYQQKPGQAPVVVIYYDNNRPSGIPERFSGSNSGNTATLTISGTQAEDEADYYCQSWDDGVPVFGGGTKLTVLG : 3.9
2A8 wild-type Fab (Fab, V domains shown, Fab with c-myc (or HA, or none) and 6xHis tag at the C-terminus of the heavy chain; also called 2A8wt; 2A8 wt) VH: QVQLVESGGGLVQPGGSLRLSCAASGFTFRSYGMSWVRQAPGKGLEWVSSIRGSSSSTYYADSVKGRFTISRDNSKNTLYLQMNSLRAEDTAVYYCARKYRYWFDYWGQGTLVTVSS VL: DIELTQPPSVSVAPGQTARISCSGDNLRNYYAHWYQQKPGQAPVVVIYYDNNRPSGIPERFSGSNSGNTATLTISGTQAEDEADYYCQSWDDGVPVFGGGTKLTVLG : 1

Read the next record carefully.
Qu. Suppose we examine the binder 4B7 wild-type Fab (Fab, V domains shown, Fab with HA (or c-myc) and 6xHis tag at the C-terminus of the heavy chain; also called 4B7wt; parental 4B7) VH: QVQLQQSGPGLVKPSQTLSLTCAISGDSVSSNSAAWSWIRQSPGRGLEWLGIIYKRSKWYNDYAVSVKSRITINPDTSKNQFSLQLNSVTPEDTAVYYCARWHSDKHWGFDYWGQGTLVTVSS VL: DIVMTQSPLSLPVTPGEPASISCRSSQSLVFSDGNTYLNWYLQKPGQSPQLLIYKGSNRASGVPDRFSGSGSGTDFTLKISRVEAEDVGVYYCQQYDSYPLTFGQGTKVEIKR ; what Improvement vs parental, FXa restoring assay value has been reported?
Ans. 1
